Entries and their pKd values follow.
Biological target: BoNT/A2 holotoxin (FRI-H1A2) (Clostridium botulinum, UniProt Q45894 2-1296)
Sequence (Q45894 2-1296): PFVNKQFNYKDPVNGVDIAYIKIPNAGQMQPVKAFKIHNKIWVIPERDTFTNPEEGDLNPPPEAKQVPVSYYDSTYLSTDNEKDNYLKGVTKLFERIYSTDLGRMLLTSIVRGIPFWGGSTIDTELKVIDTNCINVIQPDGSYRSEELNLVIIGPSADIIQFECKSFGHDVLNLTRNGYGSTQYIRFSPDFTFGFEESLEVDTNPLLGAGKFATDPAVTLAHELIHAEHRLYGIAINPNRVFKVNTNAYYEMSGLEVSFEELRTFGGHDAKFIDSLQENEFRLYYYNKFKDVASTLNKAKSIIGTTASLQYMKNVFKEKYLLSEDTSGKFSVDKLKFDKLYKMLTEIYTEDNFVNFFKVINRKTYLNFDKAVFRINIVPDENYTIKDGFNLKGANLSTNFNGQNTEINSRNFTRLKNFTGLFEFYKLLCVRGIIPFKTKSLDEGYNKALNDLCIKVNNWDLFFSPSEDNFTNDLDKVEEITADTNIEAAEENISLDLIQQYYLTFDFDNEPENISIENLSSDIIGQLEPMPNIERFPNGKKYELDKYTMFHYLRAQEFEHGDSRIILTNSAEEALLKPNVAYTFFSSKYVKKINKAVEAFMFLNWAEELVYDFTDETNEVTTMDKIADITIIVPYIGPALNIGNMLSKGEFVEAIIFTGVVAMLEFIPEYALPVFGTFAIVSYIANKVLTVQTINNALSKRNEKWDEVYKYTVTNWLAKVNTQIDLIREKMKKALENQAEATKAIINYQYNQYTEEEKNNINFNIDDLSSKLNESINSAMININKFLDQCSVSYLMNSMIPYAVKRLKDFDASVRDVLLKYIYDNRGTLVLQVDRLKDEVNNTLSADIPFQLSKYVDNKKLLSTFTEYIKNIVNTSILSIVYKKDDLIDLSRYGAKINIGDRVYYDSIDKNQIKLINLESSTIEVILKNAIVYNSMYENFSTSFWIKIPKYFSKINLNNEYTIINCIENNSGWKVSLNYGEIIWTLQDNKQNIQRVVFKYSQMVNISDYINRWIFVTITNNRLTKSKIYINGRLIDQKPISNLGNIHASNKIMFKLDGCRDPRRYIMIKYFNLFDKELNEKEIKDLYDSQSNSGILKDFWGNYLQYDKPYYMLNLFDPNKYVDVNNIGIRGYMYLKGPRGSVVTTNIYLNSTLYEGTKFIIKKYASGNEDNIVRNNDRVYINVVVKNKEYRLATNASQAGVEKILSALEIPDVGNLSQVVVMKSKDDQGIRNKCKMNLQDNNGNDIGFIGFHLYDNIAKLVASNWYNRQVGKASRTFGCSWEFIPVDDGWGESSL
Experiment: yeast scFv FACS
pKd: −log10 of the molar value.
measureName: pKd

binder	measValue
10B12 scFv (scFv, mouse) scFv: EVQLQQSGAELVRPGTSVKLSCKSSGYTFTSDWMHWVIQRPGQGLEWIGVIDPSDSYTNYNQKFKGKATLTVDTSSSTAYMHLSSLTSEDSAVYYCARREGHYYGKAMDYWGQGTSVTVSSVDLKSGGSTSGSGKPGSGEGSSGSARDIVMSQSPASLAVSLGQRATISCRASESVDYDGDSYMNWYQQKPGQPPKLLIYAASNLESGIPARFSGSGSGTDFTLNIHPVEEEDAATYYCLQSNEAPWTFGGGTKLEIK	6.85
9B2 scFv (scFv, mouse) scFv: QVQLQQSGAELVRPGASVKLSCTASGFNIEDDYMHWVKQRPEQGLEWIGRIDPANGNTEYAPKFQDKATITADTSSNTAYLQLSRLTSEDTAVYYCARGGWLGNYYAMDYWGQGTSVTVSSVDLKSGGSTSGSGKPGSGEGSSGSARDIVMTQTPLTLSVTIGQPASISCRSSQSLLHNYGNTYLHWYLQKPGQSPKLLIYKVSNRFSGVPDRFSGSGSGTDFTLKISRVEAEDLGVYFCSQGTHVPWTFGGGTKLEIK	6.81
10C9 scFv (scFv, mouse) scFv: QVQLQQSGAELVRPGTSVKLSCKASGYTFTSHWMHWVKQRPGQGLEWIGVIDPSDSYTNYNQKFKGKATLTVDTSSSTAYMQLSSLTSEDSAVYYCAIRRNYGMDYWGQGTSVTVSSVDLKSGGSTSGSGKPGSGEGSSGSARDIVMTQSPTSLAVSLGQRATISCKASQSVDYDGDSFMNWYQQKPGQPPKLLIYGASNLESGIPARFSGSGSRTDFTLTINPVEADDVATYYCQQSNEDPLTFGAGTKLELK	6.95
